Source of measurements: paper PMC5622107

# Target Under Test: mouse cGAS (Mus musculus)
# Construct: recombinant full-length mouse cGAS in reaction buffer; His6-SUMO (N, cleaved yes); made in house; host or cells: E. coli BL21(DE3) RIL
# Sequence (Q8C6L5 whole entry): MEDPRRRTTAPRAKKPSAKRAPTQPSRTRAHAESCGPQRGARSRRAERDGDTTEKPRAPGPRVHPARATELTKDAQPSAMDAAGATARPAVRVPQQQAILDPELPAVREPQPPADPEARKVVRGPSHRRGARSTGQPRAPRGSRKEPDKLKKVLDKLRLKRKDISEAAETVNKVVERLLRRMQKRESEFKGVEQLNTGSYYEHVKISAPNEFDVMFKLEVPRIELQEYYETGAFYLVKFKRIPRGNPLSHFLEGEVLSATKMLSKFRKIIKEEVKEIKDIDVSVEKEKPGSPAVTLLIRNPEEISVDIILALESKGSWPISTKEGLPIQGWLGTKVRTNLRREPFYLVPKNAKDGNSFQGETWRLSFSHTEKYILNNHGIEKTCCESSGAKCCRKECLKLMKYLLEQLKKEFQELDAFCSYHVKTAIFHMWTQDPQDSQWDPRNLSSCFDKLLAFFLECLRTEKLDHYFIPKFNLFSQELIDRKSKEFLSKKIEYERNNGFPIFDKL
# Method Summary: RapidFire mass spectrometry (RF-MS) cGAS enzymatic assay, cGAMP product formation
# Assay type: biochemical
# Settings: Supplementary Table 2; batch of compounds stored in the screening library; read-out: IC50
# Method: The liquid was collected at the well bottom using centrifugation for 30 s at 180×g. […] Plates were centrifuged for 30 s at 180×g to collect all liquid at the bottom of the wells. […] The solvent used for loading/washing process was an aqueous solution of 5 mM ammonium acetate, pH 10. […] All samples were analyzed using a negative ionization mode in the mass spectrometer, with a gas temperature of 350 °C, nebulizer pressure of 35 psig, gas flow rate of 15 l min^−1. […]
Endpoint Name: pIC50
Entry type: numeric. Quantity: pIC50, the -log10 of concentration in molar units.

*Q* Please give the documented pIC50 of CCOc1ccc2nc3cc(N)ccc3c(N)c2c1 [RU1667]
*A* 6.00

*Q* Please give measured pIC50 of the following entry: O=c1[nH]n2c(=O)c3ccccc3nc2c2ccccc12 [RU5004]
*A* 5.19

*Q* For the compound CCOC(=O)c1n[nH]c2c1C(=O)N(CC)C2=O [RU4893] , give its reported pIC50.
*A* 5.19

*Q* Name the recorded pIC50 of the item N#CC1=C(N)SC(N)=C(C#N)C1c1ccc([N+](=O)[O-])cc1 [RU107796] in your answer.
*A* 5.06

*Q* Read the entry O=C(Nc1ncc([N+](=O)[O-])s1)c1cccs1 [RU187339] and write its reported pIC50.
*A* 5.18

*Q* Given the compound Cc1nnc(NC(=O)c2ccc(S(=O)(=O)Nc3cccc(C(F)(F)F)c3)o2)s1 [RU174368] , write its reported pIC50.
*A* 5.13
